- Test system: 885724-159-R-J1-PDC complex spheroid viability
- assay_remarks: Anticancer human tumor 885724-159-R-J1-PDC patient-derived pancreatic adenocarcinoma cell line growth inhibition [GQUAD]
- experimental_setup: curve of first compound; second compound 1 µM
endpoint_label: IC50

- C=CCn1c(=O)c2cnc(Nc3ccc(N4CCN(C)CC4)cc3)nc2n1-c1cccc(C(C)(C)O)n1 + CN(C)c1ccc(Nc2c3ccc(NC(=O)CCN4CCCC4)cc3nc3cc(NC(=O)CCN4CCCC4)ccc23)cc1: 3.83 µM
- C#Cc1c(F)ccc2cc(O)cc(-c3ncc4c(N5CC6CCC(C5)N6)nc(OCC56CCCN5CC(F)C6)nc4c3F)c12 (stereo not drawn) + Cc1[nH]c2ccc(F)cc2c1-c1nc2c3cccnc3c3ncccc3c2[nH]1: 3.55 µM
- Cc1[nH]c2ccccc2c1CCNCc1ccc(/C=C/C(=O)NO)cc1 + Cc1[nH]c2ccc(F)cc2c1-c1nc2c3cccnc3c3ncccc3c2[nH]1: 0.213 µM

----------
- Tested on: 885724-159-R-J1-PDC complex spheroid viability
- assay_remarks: Anticancer human tumor 885724-159-R-J1-PDC cell line growth inhibition [GQUAD];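 further: spheroids exposed to agents for seven days before readout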;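 on viability, T/C: percent of vehicle control viability where 100% = DMSO wells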
- experimental_setup: second compound 3.16 µM; first compound 0.000999 µM; stronger effect = lower value
endpoint_label: viability, T/C (%)

- CCc1c2c(nc3ccc(O)cc13)-c1cc3c(c(=O)n1C2)COC(=O)[C@]3(O)CC + Cc1cnc(CNC(=O)c2c(=O)c3ccc(N4CCCN(C)CC4)nc3n3c2sc2ccccc23)cn1: 73.9
- CC[C@@]1(O)C(=O)OCc2c1cc1n(c2=O)Cc2cc3c(CN(C)C)c(O)ccc3nc2-1 + Cc1cnc(CNC(=O)c2c(=O)c3ccc(N4CCCN(C)CC4)nc3n3c2sc2ccccc23)cn1: 74.8
- Cn1ncnc1[C@H]1c2n[nH]c(=O)c3cc(F)cc(c23)N[C@@H]1c1ccc(F)cc1 + CN(C)c1ccc(Nc2c3ccc(NC(=O)CCN4CCCC4)cc3nc3cc(NC(=O)CCN4CCCC4)ccc23)cc1: 86.4

----------
- System: 885724-159-R-J1-PDC complex spheroid viability
- assay_remarks: Anticancer human tumor 885724-159-R-J1-PDC cell line growth inhibition [GQUAD];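 further: spheroids exposed to agents for seven days before readout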;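 on viability, T/C: percent of vehicle control viability where 100% = DMSO wells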
- experimental_setup: second compound 0.0316 µM; first compound 1 µM; stronger effect = lower value
endpoint_label: viability, T/C (%)

* CC(C)n1c(=O)n(C)c2cnc3cc(F)c(-c4ccc(OCCCN5CCCCC5)nc4)cc3c21 + CN(C)c1ccc(Nc2c3ccc(NC(=O)CCN4CCCC4)cc3nc3cc(NC(=O)CCN4CCCC4)ccc23)cc1 | 91.7
* Cc1cccc(N(C)C(=O)C2C(O)CCN2c2nc(C)cc(C(F)(F)F)c2C#N)c1 (stereo not given) + Cc1[nH]c2ccc(F)cc2c1-c1nc2c3cccnc3c3ncccc3c2[nH]1 | 100
* CC(=O)O[C@H]1C(=O)[C@@]2(C)[C@H]([C@H](OC(=O)c3ccccc3)[C@]3(O)C[C@H](OC(=O)[C@H](O)[C@@H](NC(=O)c4ccccc4)c4ccccc4)C(C)=C1C3(C)C)[C@]1(OC(C)=O)CO[C@@H]1C[C@@H]2O + CN(C)c1ccc(Nc2c3ccc(NC(=O)CCN4CCCC4)cc3nc3cc(NC(=O)CCN4CCCC4)ccc23)cc1 | 85.3
* O=C(c1cc(Cc2n[nH]c(=O)c3ccccc23)ccc1F)N1CCN(C(=O)C2CC2)CC1 + Cc1[nH]c2ccc(F)cc2c1-c1nc2c3cccnc3c3ncccc3c2[nH]1 | 84.5
* Nc1ccn(C2OC(CO)C(O)C2(F)F)c(=O)n1 (stereo not given) + CN(C)c1ccc(Nc2c3ccc(NC(=O)CCN4CCCC4)cc3nc3cc(NC(=O)CCN4CCCC4)ccc23)cc1 | 72.9
* Nc1ccn(C2OC(CO)C(O)C2(F)F)c(=O)n1 (stereo not given) + Cc1[nH]c2ccc(F)cc2c1-c1nc2c3cccnc3c3ncccc3c2[nH]1 | 75.6
* C=CCn1c(=O)c2cnc(Nc3ccc(N4CCN(C)CC4)cc3)nc2n1-c1cccc(C(C)(C)O)n1 + Cc1[nH]c2ccc(F)cc2c1-c1nc2c3cccnc3c3ncccc3c2[nH]1 | 63.7
* CC1COCCN1c1cc(-c2ccnn2C)c2ccnc(-c3ccn[nH]3)c2n1 (stereo not given) + Cc1cnc(CNC(=O)c2c(=O)c3ccc(N4CCCN(C)CC4)nc3n3c2sc2ccccc23)cn1 | 54.9
* CC(C)(O)C1CCC(Nc2ccc3ncc(-c4cccc(C(F)(F)F)c4)n3n2)CC1 (stereo not given) + Cc1cnc(CNC(=O)c2c(=O)c3ccc(N4CCCN(C)CC4)nc3n3c2sc2ccccc23)cn1 | 70.3
* COc1cc(C2c3cc4c(cc3C(OC3OC5COC(C)OC5C(O)C3O)C3COC(=O)C23)OCO4)cc(OC)c1O (stereo not given) + Cc1cnc(CNC(=O)c2c(=O)c3ccc(N4CCCN(C)CC4)nc3n3c2sc2ccccc23)cn1 | 91.5

----------
- Test system: 885724-159-R-J1-PDC complex spheroid viability
- assay_remarks: Anticancer human tumor 885724-159-R-J1-PDC cell line growth inhibition [GQUAD]; active = viability on the fitted dose curve at most 10% of control; inactive = the rest;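 further: spheroids exposed to agents for seven days before readout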
- experimental_setup: second compound 3.16 µM; first compound 0.316 µM
Possible outcomes: y for active, n for inactive

- CC[C@@]1(O)C(=O)OCc2c1cc1n(c2=O)Cc2cc3c(CN(C)C)c(O)ccc3nc2-1 + CN(C)c1ccc(Nc2c3ccc(NC(=O)CCN4CCCC4)cc3nc3cc(NC(=O)CCN4CCCC4)ccc23)cc1: n
- CC1COCCN1c1cc(C2(O)CC3CCC(C2)O3)c2cnn(-c3ccn[nH]3)c2n1 (stereo not drawn) + CN(C)c1ccc(Nc2c3ccc(NC(=O)CCN4CCCC4)cc3nc3cc(NC(=O)CCN4CCCC4)ccc23)cc1: n
- Cc1cccc(N(C)C(=O)C2C(O)CCN2c2nc(C)cc(C(F)(F)F)c2C#N)c1 (stereo not drawn) + Cc1cnc(CNC(=O)c2c(=O)c3ccc(N4CCCN(C)CC4)nc3n3c2sc2ccccc23)cn1: n
- CCCS(=O)(=O)Nc1ccc(F)c(C(=O)c2c[nH]c3ncc(-c4ccc(Cl)cc4)cc23)c1F + Cc1[nH]c2ccc(F)cc2c1-c1nc2c3cccnc3c3ncccc3c2[nH]1: n
- CC(C)(O)C1CCC(Nc2ccc3ncc(-c4cccc(C(F)(F)F)c4)n3n2)CC1 (stereo not drawn) + Cc1[nH]c2ccc(F)cc2c1-c1nc2c3cccnc3c3ncccc3c2[nH]1: y
- Cc1[nH]c2ccccc2c1CCNCc1ccc(/C=C/C(=O)NO)cc1 + Cc1cnc(CNC(=O)c2c(=O)c3ccc(N4CCCN(C)CC4)nc3n3c2sc2ccccc23)cn1: n
- C=CC(=O)N1CCN(c2nc(=O)n(-c3c(C)ccnc3C(C)C)c3nc(-c4c(O)cccc4F)c(F)cc23)C(C)C1 (stereo not drawn) + CN(C)c1ccc(Nc2c3ccc(NC(=O)CCN4CCCC4)cc3nc3cc(NC(=O)CCN4CCCC4)ccc23)cc1: n
- CC(C)n1c(=O)n(C)c2cnc3cc(F)c(-c4ccc(OCCCN5CCCCC5)nc4)cc3c21 + CN(C)c1ccc(Nc2c3ccc(NC(=O)CCN4CCCC4)cc3nc3cc(NC(=O)CCN4CCCC4)ccc23)cc1: n

----------
- Test system: 885724-159-R-J1-PDC complex spheroid viability
- assay_remarks: Anticancer human tumor 885724-159-R-J1-PDC cell line growth inhibition [GQUAD];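 further: spheroids exposed to agents for seven days before readout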;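 on viability, T/C: percent of vehicle control viability where 100% = DMSO wells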
- experimental_setup: second compound 0.0316 µM; first compound 0.00316 µM; stronger effect = lower value
endpoint_label: viability, T/C (%)

* CC[C@@]1(O)C(=O)OCc2c1cc1n(c2=O)Cc2cc3c(CN(C)C)c(O)ccc3nc2-1 + Cc1[nH]c2ccc(F)cc2c1-c1nc2c3cccnc3c3ncccc3c2[nH]1 | 114
* Cn1ncnc1[C@H]1c2n[nH]c(=O)c3cc(F)cc(c23)N[C@@H]1c1ccc(F)cc1 + CN(C)c1ccc(Nc2c3ccc(NC(=O)CCN4CCCC4)cc3nc3cc(NC(=O)CCN4CCCC4)ccc23)cc1 | 96.7
* CCc1c2c(nc3ccc(O)cc13)-c1cc3c(c(=O)n1C2)COC(=O)[C@]3(O)CC + CN(C)c1ccc(Nc2c3ccc(NC(=O)CCN4CCCC4)cc3nc3cc(NC(=O)CCN4CCCC4)ccc23)cc1 | 78.9
* CC[C@@]1(O)C(=O)OCc2c1cc1n(c2=O)Cc2cc3c(CN(C)C)c(O)ccc3nc2-1 + Cc1cnc(CNC(=O)c2c(=O)c3ccc(N4CCCN(C)CC4)nc3n3c2sc2ccccc23)cn1 | 95.5
* CCc1c2c(nc3ccc(O)cc13)-c1cc3c(c(=O)n1C2)COC(=O)[C@]3(O)CC + Cc1cnc(CNC(=O)c2c(=O)c3ccc(N4CCCN(C)CC4)nc3n3c2sc2ccccc23)cn1 | 97.1
* Cn1ncnc1[C@H]1c2n[nH]c(=O)c3cc(F)cc(c23)N[C@@H]1c1ccc(F)cc1 + Cc1[nH]c2ccc(F)cc2c1-c1nc2c3cccnc3c3ncccc3c2[nH]1 | 95.2
* Cc1[nH]c2ccccc2c1CCNCc1ccc(/C=C/C(=O)NO)cc1 + CN(C)c1ccc(Nc2c3ccc(NC(=O)CCN4CCCC4)cc3nc3cc(NC(=O)CCN4CCCC4)ccc23)cc1 | 98.3
* CC[C@@]1(O)C(=O)OCc2c1cc1n(c2=O)Cc2cc3c(CN(C)C)c(O)ccc3nc2-1 + CN(C)c1ccc(Nc2c3ccc(NC(=O)CCN4CCCC4)cc3nc3cc(NC(=O)CCN4CCCC4)ccc23)cc1 | 93.2
* Cc1[nH]c2ccccc2c1CCNCc1ccc(/C=C/C(=O)NO)cc1 + Cc1[nH]c2ccc(F)cc2c1-c1nc2c3cccnc3c3ncccc3c2[nH]1 | 99
* Cn1ncnc1[C@H]1c2n[nH]c(=O)c3cc(F)cc(c23)N[C@@H]1c1ccc(F)cc1 + Cc1cnc(CNC(=O)c2c(=O)c3ccc(N4CCCN(C)CC4)nc3n3c2sc2ccccc23)cn1 | 107
* Cc1[nH]c2ccccc2c1CCNCc1ccc(/C=C/C(=O)NO)cc1 + Cc1cnc(CNC(=O)c2c(=O)c3ccc(N4CCCN(C)CC4)nc3n3c2sc2ccccc23)cn1 | 103
* CCc1c2c(nc3ccc(O)cc13)-c1cc3c(c(=O)n1C2)COC(=O)[C@]3(O)CC + Cc1[nH]c2ccc(F)cc2c1-c1nc2c3cccnc3c3ncccc3c2[nH]1 | 83.6
